- Test system: Saccharomyces cerevisiae BY4741 SeMeCo community
- protocol.notes: z-score of subpopulation abundance vs DMSO median, subpopulation auxotrophic for H; higher = larger share of this subpopulation than in DMSO controls
- test.conditions: 10 µM; 24 h; SM minimal medium; subpopulation (auxotrophy): H
Structures can show the parent of a compound that is named as a salt.
Each record's z-score of subpopulation abundance is compared with low = under 0.2, medium = from 0.2 up to 0.7, high = 0.7 and over to give its class.

{"compound": "Oc1c(Br)cc(Br)c2cccnc12", "cat": "high"}
{"compound": "CNCCCN1c2ccccc2CCc2ccccc21 [Desipramine Hydrochloride]", "cat": "medium"}
{"compound": "CCC(C)(C)c1ccc(CC(C)CN2C[C@@H](C)O[C@@H](C)C2)cc1 (some centres not stated) [Amorolfine HCl]", "cat": "high"}
{"compound": "CC(=O)OCC(CCn1cnc2cnc(N)nc21)COC(C)=O", "cat": "low"}
{"compound": "NCCc1ccc(O)c(O)c1 [Dopamine HCl]", "cat": "low"}
{"compound": "CCN1CCN(C(=O)N[C@@H](C(=O)N[C@@H]2C(=O)N3[C@@H]2SC(C)(C)[C@@H]3C(=O)O)c2ccccc2)C(=O)C1=O [Piperacillin Sodium]", "cat": "low"}
{"compound": "CN(C)CCc1c[nH]c2ccc(Cn3cncn3)cc12 [Rizatriptan Benzoate]", "cat": "medium"}
{"compound": "Cc1onc(-c2ccccc2)c1C(=O)N[C@@H]1C(=O)N2[C@@H]1SC(C)(C)[C@@H]2C(=O)O [Oxacillin sodium monohydrate]", "cat": "low"}
{"compound": "OCCN1CCN(CC/C=C2/c3ccccc3Sc3ccc(C(F)(F)F)cc32)CC1 [Flupenthixol dihydrochloride]", "cat": "high"}
{"compound": "Clc1ccc(C(Cn2ccnc2)OCc2ccc(Sc3ccccc3)cc2)c(Cl)c1 (configuration not stated) [Fenticonazole Nitrate]", "cat": "high"}
{"compound": "CN[C@@H]1[C@H](O[C@H]2[C@H](O[C@H]3[C@H](O)[C@@H](O)[C@H](N=C(N)N)[C@@H](O)[C@@H]3N=C(N)N)O[C@@H](C)[C@]2(O)C=O)O[C@@H](CO)[C@H](O)[C@H]1O [Streptomycin sulfate]", "cat": "medium"}
{"compound": "CN(C)C(=O)COC(=O)Cc1ccc(OC(=O)c2ccc(NC(=N)N)cc2)cc1 [Camostat Mesilate]", "cat": "low"}
{"compound": "CC[C@@]1(O)C(=O)OCc2c1cc1n(c2=O)Cc2cc3cc(O)ccc3nc2-1 [(S)-10-Hydroxycamptothecin]", "cat": "high"}
{"compound": "CCCN[C@H]1CCc2nc(N)sc2C1 [Pramipexole 2HCl Monohydrate]", "cat": "low"}
{"compound": "C[C@@H](O)[C@H]1C(=O)N2C(C(=O)O)=C([C@H]3CCCO3)S[C@H]12 [Faropenem Sodium]", "cat": "medium"}
{"compound": "CCCOc1ccc2c(c1)CC[C@@H]1[C@@H]2CC[C@]2(C)[C@@H](OC)CC[C@@H]12", "cat": "low"}
{"compound": "CC(C)[C@H]1CC[C@H](C(=O)N[C@H](Cc2ccccc2)C(=O)O)CC1 [Nateglinide]", "cat": "medium"}
